# Aβ Shift values compiled below
assaySystem: immobilized Aβ fibrils (Homo sapiens)
testDetails: FAC-MS assay of free Aβ monomer (indicator) binding to immobilized Aβ fibrils in the presence of test compounds
measurementConditions: FAC-MS screen; shift of free Aβ monomer breakthrough on immobilized Aβ fibrils in presence of compound; scale not given
Enter a number only.

Previously resolved entries follow.
compound: Cc1cc(C(=O)NC2CCCC(C)C2C)c2ccccc2n1 (stereo not shown)
assaySystem: immobilized Aβ fibrils (Homo sapiens)
Aβ Shift: 1
//
compound: CC12CC3CC(C)(C1)CC(C(=O)N1CCOCC1)(C3)C2
assaySystem: immobilized Aβ fibrils (Homo sapiens)
Aβ Shift: 1

Qu. For immobilized Aβ fibrils (Homo sapiens), provide Aβ Shift of C=CC1CCC(O)C(N(C)C(=S)Nc2ccccc2)C1 (stereo not shown) please.
Ans. 1

Qu. Recorded Aβ Shift for CC1CCC(C(C)C)C(OC(=O)c2ccncc2)C1 (stereo not shown) with immobilized Aβ fibrils (Homo sapiens), please?
Ans. 1

Qu. Request body: readout Aβ Shift, system immobilized Aβ fibrils (Homo sapiens), query CC1CCCC(NC(=O)c2cc3c(s2)CSC3)C1C (stereo not shown) . Return the value.
Ans. 1

Qu. immobilized Aβ fibrils (Homo sapiens) / Aβ Shift / CCN1CCC(NC2CCCC(C)C2C)CC1 (stereo not shown) : value?
Ans. 1

Qu. Enter reported Aβ Shift observed with immobilized Aβ fibrils (Homo sapiens) for CC(=O)NC12CC3(C)CC(C)(CC(O)(C3)C1)C2
Ans. 1

Qu. # returns recorded Aβ Shift (system: immobilized Aβ fibrils (Homo sapiens)) for CC12CC3(C)CC(C)(C1)CC(NC(=O)N1CCCC1)(C2)C3
Ans. 1

Qu. Missing value: Aβ Shift, immobilized Aβ fibrils (Homo sapiens), entry CC1CCC(C(C)C)C(OC(=O)C[n+]2ccccc2)C1 (stereo not shown) . Fill in?
Ans. 1

Qu. # value lookup — system immobilized Aβ fibrils (Homo sapiens), readout Aβ Shift, item CC(NC(=O)C12CC3(C)CC(C)(CC(C)(C3)C1)C2)C(=O)O (stereo not shown)
Ans. 2

Qu. Hello, I am looking for reported Aβ Shift with immobilized Aβ fibrils (Homo sapiens) for CC1CCCC(NC(=O)C2CCCCC2C(=O)O)C1C (stereo not shown) . Could you help?
Ans. 0

Qu. Form field - read-out: Aβ Shift; system: immobilized Aβ fibrils (Homo sapiens); submitted item: CC12CC3CC(CO)(C1)CC(c1ccccc1)(C3)C2 (stereo not shown)
Ans. 1

Qu. Which Aβ Shift is reported with immobilized Aβ fibrils (Homo sapiens) for this entry: CC(=O)NC12CC3CC(C)(C1)CC(NC(C)=O)(C3)C2 ?
Ans. 1

Qu. # query: Aβ Shift | item CC1CC2=C(/C(=N/O)C1)C1(O)CC(C)CC(C)(C2)C1 (stereo not shown) | system: immobilized Aβ fibrils (Homo sapiens)
Ans. 0

Qu. Any idea what Aβ Shift came out for OCC1CC(Cl)CC(Cl)C1O (stereo not shown) on immobilized Aβ fibrils (Homo sapiens)?
Ans. 0

Qu. # query: Aβ Shift | item CC1CCCC(NC(=O)c2nc[nH]n2)C1C (stereo not shown) | system: immobilized Aβ fibrils (Homo sapiens)
Ans. 0

Qu. Query for immobilized Aβ fibrils (Homo sapiens): what Aβ Shift does the record show for CC1CCC(C(C)C)C(OCC[N+](C)(C)C)C1 (stereo not shown) ?
Ans. 2

###

assaySystem: immobilized Aβ fibrils (Homo sapiens, UniProt P05067)
Sequence (P05067 672-713 limits assumed): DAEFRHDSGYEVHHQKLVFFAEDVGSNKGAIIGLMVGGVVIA
testDetails: FAC-MS assay of free Aβ monomer (indicator) binding to immobilized Aβ fibrils in the presence of test compounds
measurementConditions: FAC-MS % shift of breakthrough time of free Aβ1-42 monomer (1 μM) on immobilized Aβ fibrils; compounds 1-10 μM in 20 mM NH4OAc, 1% DMSO; void marker M3
reportedProperty: % of Shift (%)
Report the figure in % without appending any unit label.

Here is how some compounds turned out for % of Shift.
compound: CC(C)C(=O)OC1C(O)C(OC(=O)C(C)C)C(OC(=O)C(C)C)C(OC(=O)C(C)C)C1OC(=O)C(C)C (centres unmarked)
assaySystem: immobilized Aβ fibrils (Homo sapiens, UniProt P05067)
valueUnit: %
% of Shift: 4

compound: O=C(OC1C(O)C(OC(=O)c2ccccc2)C(OC(=O)c2ccccc2)C(OC(=O)c2ccccc2)C1OC(=O)c1ccccc1)c1ccccc1 (centres unmarked)
assaySystem: immobilized Aβ fibrils (Homo sapiens, UniProt P05067)
valueUnit: %
% of Shift: 2

compound: CC(=O)OC1C(OC(=O)C(C)(C)C)C(OC(=O)C(C)(C)C)C(OC(C)=O)C(OC(=O)C(C)(C)C)C1OC(=O)C(C)(C)C (centres unmarked)
assaySystem: immobilized Aβ fibrils (Homo sapiens, UniProt P05067)
valueUnit: %
% of Shift: 4

compound: OC1[C@@H](O)[C@H](O)C(O[C@H]2OC[C@H](O)[C@H](O)[C@H]2O)[C@H](O)[C@H]1O (stereo partly drawn) [Compound A-9826, 2-O-b-L-Arabinopyranosyl myo-inositol, reference compound]
assaySystem: immobilized Aβ fibrils (Homo sapiens, UniProt P05067)
valueUnit: %
% of Shift: 3

compound: CCC(=O)OC1C(OC(=O)CC)C(OC(=O)CC)C(OC(=O)CC)C(OC(=O)CC)C1OC(=O)CC (centres unmarked)
assaySystem: immobilized Aβ fibrils (Homo sapiens, UniProt P05067)
valueUnit: %
% of Shift: 4

compound: CC(C)CC(=O)OC1C(O)C(OC(=O)CC(C)C)C(OC(=O)CC(C)C)C(OC(=O)CC(C)C)C1OC(=O)CC(C)C (centres unmarked)
assaySystem: immobilized Aβ fibrils (Homo sapiens, UniProt P05067)
valueUnit: %
% of Shift: 2

Attention now shifts to the item below.
Qu. Which measured % of Shift belongs to CC(C)(C)C(=O)OC1C(OC(=O)C(C)(C)C)C(OC(=O)C(C)(C)C)C(OC(=O)C(C)(C)C)C(OC(=O)C(C)(C)C)C1OC(=O)C(C)(C)C (centres unmarked) , tested on immobilized Aβ fibrils (Homo sapiens, UniProt P05067)?
Ans. 4

###

assaySystem: immobilized Aβ fibrils (Homo sapiens)
testDetails: FAC-MS assay of free Aβ monomer (indicator) binding to immobilized Aβ fibrils in the presence of test compounds
measurementConditions: FAC-MS screen; shift of free Aβ monomer breakthrough on immobilized Aβ fibrils in presence of compound; scale not given
reportedProperty: Aβ Shift
Give only the figure.

In the examples that follow, each entry is paired with its recorded Aβ Shift.
molecule: CC1CCC(N(CCCN)Cc2ccco2)CC1C (stereo not shown)
Aβ Shift: 1
//
molecule: CC(=O)NC12CC3(C)CC(C)(C1)CC(NC(C)=O)(C3)C2
Aβ Shift: 1
//
molecule: CC12CC3(C)CC(CC(=O)O)(C1)CC(CC(=O)O)(C2)C3
Aβ Shift: 1
//
molecule: CC12CC3(C)CC(N)(C1)CC(O)(C2)C3
Aβ Shift: 1
//
molecule: CC12CC3CC(C)(C1)CC(CN)(C3)C2
Aβ Shift: 2
//
molecule: CC1(C(=O)O)CC(C)(C(=O)O)CC(C)(C(=O)O)C1 (stereo not shown)
Aβ Shift: 1
//
molecule: CC12CC3CC(C)(C1)CC(C(=O)NC1=NCCS1)(C3)C2
Aβ Shift: 1
//
molecule: CCC1CC2(C(=O)NCc3ccco3)CC3(C)CC3(C1)C2 (stereo not shown)
Aβ Shift: 1

Shifting focus to the molecule that follows.
Qu. Fill in the blank: the reported Aβ Shift of Cc1ccc[n+](CC(=O)OC2CC(C)CCC2C(C)C)c1 (stereo not shown) is ____.
Ans. 1

###

Aβ Shift overview
assaySystem: immobilized Aβ fibrils (Homo sapiens)
testDetails: FAC-MS assay of free Aβ monomer (indicator) binding to immobilized Aβ fibrils in the presence of test compounds
measurementConditions: FAC-MS screen; shift of free Aβ monomer breakthrough on immobilized Aβ fibrils in presence of compound; scale not given
No unit in the answer, only the number.

molecule: CC12CC3(C)CC(C(=O)O)(C1)CC(C(=O)O)(C2)C3
Aβ Shift: 1
--
molecule: CC12CC3CC(C)(C1)CC(C(=O)NC(C)(C)CO)(C3)C2
Aβ Shift: 1
--
molecule: CC12CC3CC(C)(C1)CC(CC(=O)NNC(N)=O)(C3)C2
Aβ Shift: 2
--
molecule: CC1CCCC(C)C1CO (centres unmarked)
Aβ Shift: 1
--
molecule: CC1CC(NC(=O)c2cccc3ccccc23)CC(C)(C)C1 (centres unmarked)
Aβ Shift: 0
--
molecule: CC12CC3(C)CC(C)(C1)CC(N)(C2)C3
Aβ Shift: 1
--
molecule: O=S(=O)(c1ccccc1)C1C2CC3C(C2Cl)C31 (centres unmarked)
Aβ Shift: 0
--
molecule: CC(C)=CCCC12CCC(CO)(CO1)C(C)C2 (centres unmarked)
Aβ Shift: 1
--
molecule: COC(=O)C12CC3CC(C)(CC(C)(C3)C1)C2
Aβ Shift: 1
--
molecule: CC12CC3CC(C)(C1)CC(C(=O)NNC(N)=O)(C3)C2
Aβ Shift: 1

Qu. Consider the molecule shown here: CCC(=O)OC1CCC(C)CC1C(C)(C)C(C)C (centres unmarked) What is its recorded Aβ Shift?
Ans. 1

Qu. Record request: Aβ Shift value, item CC1CCCC(NC(=O)c2n[nH]c(=O)c3ccccc23)C1C (centres unmarked)
Ans. 2

Qu. Fill in: Aβ Shift of CC1CCN(C(=O)C23CC4CC(C)(CC(C)(C4)C2)C3)CC1 is ___
Ans. 1

Qu. What value of measured Aβ Shift is listed for CC1CC(NC(=O)c2cccs2)CC(C)(C)C1 (centres unmarked) ?
Ans. 0

Qu. So what does the record say about Aβ Shift for CC1CCC(C(C)C)C(OC(=O)c2ccco2)C1 (centres unmarked) ?
Ans. 2

Qu. Find the recorded Aβ Shift belonging to O=C(O)C1C2CC3C(C2Cl)C31 (centres unmarked) and report it.
Ans. 1

Qu. I have this molecule here, O=C1OC2C3CC([C@@H]2I)[C@@H](CO)C13 (some centres unmarked) , and I need its recorded Aβ Shift.
Ans. 0

Qu. Can you look up the measured Aβ Shift of CC1CCC(C(C)C)C(OC(=O)CCc2ccccc2)C1 (centres unmarked) for me?
Ans. 1

Qu. Data request, read-out Aβ Shift, for CC1CCC(C(C)C)C(OCC(O)CN2CCOCC2)C1 (centres unmarked)
Ans. 1

Qu. Given the entry CC1CC(NC(=O)C2CCC2)CC(C)(C)C1 (centres unmarked) , report its measured Aβ Shift.
Ans. 0

Qu. # Aβ Shift lookup, item CC1CC(C)C(C(=O)c2ccccc2)C(O)C1 (centres unmarked)
Ans. 1

Qu. Given the entry C=CCNC(=O)C12CC3(C)CC(C)(CC(C)(C3)C1)C2 , report its measured Aβ Shift.
Ans. 1

Qu. May I ask what Aβ Shift has been recorded for CC12CC3(C)CC(C)(C1)CC(CC(=O)O)(C2)C3 ?
Ans. 1

Qu. So what does the record say about Aβ Shift for CC(=O)NC1CC(Cl)CCC1C (centres unmarked) ?
Ans. 1
